Assay: xn = mol fraction of the nth substance listed
Details: 313.15 K; 100 kPa; Liquid; Vibrating tube method; x1 = 0.25
parameter: mass density (kg/m3)
Response body: numeric value in kg/m3, unit text excluded.

Before answering, review these 3 worked examples.
# compound, parameter, assay-result
measured = [
    ("CCCCCCn1cc[n+](C)c1.O=[N+]([O-])c1cn[n-]c1 [1-hexyl-3-methylimidazolium 4-nitropyrazolide] + CCCCCCCCCCCCCC[P+](CCCCCC)(CCCCCC)CCCCCC.O=S(=O)([N-]S(=O)(=O)C(F)(F)F)C(F)(F)F", "mass density", 1060.3),
    ("CCCCCCCC[P+](CC)(CC)CC.O=[N+]([O-])c1cn[n-]c1 [triethyloctylphosphonium 4-nitropyrazolide] + CCCCCC[n+]1ccn(C)c1.O=S(=O)([N-]S(=O)(=O)C(F)(F)F)C(F)(F)F", "mass density", 1271.8),
    ("CCCCCCCC[P+](CC)(CC)CC.O=[N+]([O-])c1cn[n-]c1 [triethyloctylphosphonium 4-nitropyrazolide] + CCCCCCn1cc[n+](C)c1C.O=S(=O)([N-]S(=O)(=O)C(F)(F)F)C(F)(F)F", "mass density", 1265.7),
]

Now look at this entry.
Requested read-out: mass density. Entry: CCCCCCn1cc[n+](C)c1C.O=[N+]([O-])c1cn[n-]c1 [1-hexyl-2,3-dimethylimidazolium 4-nitropyrazolide] + CCCCCCCCCCCCCC[P+](CCCCCC)(CCCCCC)CCCCCC.O=S(=O)([N-]S(=O)(=O)C(F)(F)F)C(F)(F)F
1060.4

* * *

Settings: 283.15 K; 100 kPa; Liquid; Cone and plate viscometry
Please use YES whenever viscosity is not below 100 mPa·s, and NO whenever it is.

# compound, label
records = [
    ("CCCCCCCCCCCCCC[P+](CCCCCC)(CCCCCC)CCCCCC.N#Cc1ccc[n-]1 [trihexyl(tetradecyl)phosphonium 2-cyanopyrrolide]", "YES"),
    ("CC[P+](CC)(CC)COCCOC.O=S(=O)([N-]S(=O)(=O)C(F)(F)F)C(F)(F)F", "NO"),
    ("CCCC[n+]1ccn(C)c1.O=S(=O)([N-]S(=O)(=O)C(F)(F)F)C(F)(F)F", "YES"),
]

Check this compound for viscosity at or above 100 mPa·s: CCCCCCn1cc[n+](C)c1.N#Cc1ccc[n-]1 [1-hexyl-3-methylimidazolium 2-cyanopyrrolide]
YES

Check this compound for viscosity at or above 100 mPa·s: `CCn1cc[n+](C)c1.O=S(=O)([N-]S(=O)(=O)C(F)(F)F)C(F)(F)F`
NO

* * *

Assay: xn = mol fraction of the nth substance listed
Details: 308.15 K; 100 kPa; Liquid; Cone and plate viscometry; x1 = 0.499
Recorded measurements of viscosity, one per entry
Response body: numeric value in mPa·s, unit text excluded.

Before answering, review these 3 worked examples.
# compound, unit-descriptor, viscosity
data = [
    ("CCCCCCCC[P+](CC)(CC)CC.O=[N+]([O-])c1cn[n-]c1 [triethyloctylphosphonium 4-nitropyrazolide] + CCCCCC[n+]1ccn(C)c1.O=S(=O)([N-]S(=O)(=O)C(F)(F)F)C(F)(F)F", "mPa·s", 96),
    ("CCCCCCn1cc[n+](C)c1.O=[N+]([O-])c1cn[n-]c1 [1-hexyl-3-methylimidazolium 4-nitropyrazolide] + CCCCCCCC[P+](CC)(CC)CC.O=S(=O)([N-]S(=O)(=O)C(F)(F)F)C(F)(F)F", "mPa·s", 90),
    ("CC(=O)[O-].CCCCCCCCCCCCCC[P+](CCCCCC)(CCCCCC)CCCCCC [trihexyl(tetradecyl)phosphonium acetate] + CCCCCC[n+]1ccn(C)c1.O=S(=O)([N-]S(=O)(=O)C(F)(F)F)C(F)(F)F", "mPa·s", 238),
]

Now look at this entry.
Requested read-out: viscosity. Entry: CCCCCCn1cc[n+](C)c1.N#Cc1ccc[n-]1 [1-hexyl-3-methylimidazolium 2-cyanopyrrolide] + CCCCCCCCCCCCCC[P+](CCCCCC)(CCCCCC)CCCCCC.O=S(=O)([N-]S(=O)(=O)C(F)(F)F)C(F)(F)F
164

* * *

Assay: xn = mol fraction of the nth substance listed
Settings: 313.15 K; 100 kPa; Liquid; Cone and plate viscometry; x1 = 0.5
Recorded measurements of viscosity, one per entry
Response body: numeric value in mPa·s, unit text excluded.

Before answering, review these 3 worked examples.
# compound, viscosity, mPa·s
data = [
    ("CCCCCCn1cc[n+](C)c1C.O=[N+]([O-])c1cn[n-]c1 [1-hexyl-2,3-dimethylimidazolium 4-nitropyrazolide] + CCCCCCCCCCCCCC[P+](CCCCCC)(CCCCCC)CCCCCC.O=S(=O)([N-]S(=O)(=O)C(F)(F)F)C(F)(F)F", 182),
    ("CCCCCCn1cc[n+](C)c1.O=[N+]([O-])c1cn[n-]c1 [1-hexyl-3-methylimidazolium 4-nitropyrazolide] + CCCCCCCCCCCCCC[P+](CCCCCC)(CCCCCC)CCCCCC.O=S(=O)([N-]S(=O)(=O)C(F)(F)F)C(F)(F)F", 150),
    ("CCCCCCCCCCCCCC[P+](CCCCCC)(CCCCCC)CCCCCC.N#Cc1ccc[n-]1 [trihexyl(tetradecyl)phosphonium 2-cyanopyrrolide] + CCCCCCn1cc[n+](C)c1C.O=S(=O)([N-]S(=O)(=O)C(F)(F)F)C(F)(F)F", 148),
]

Now look at this entry.
Requested read-out: viscosity. Entry: CCCCCCCC[P+](CC)(CC)CC.O=[N+]([O-])c1cn[n-]c1 [triethyloctylphosphonium 4-nitropyrazolide] + CCCCCCn1cc[n+](C)c1C.O=S(=O)([N-]S(=O)(=O)C(F)(F)F)C(F)(F)F
103

* * *

Recorded measurements of viscosity, one per entry
Experiment: xn = mol fraction of the nth substance listed
Conditions: 298.15 K; 100 kPa; Liquid; Cone and plate viscometry; x1 = 0.1
Response body: numeric value in mPa·s, unit text excluded.

# compound, viscosity (mPa·s)
data = [
    ("CCCCCCn1cc[n+](C)c1.N#Cc1ccc[n-]1 [1-hexyl-3-methylimidazolium 2-cyanopyrrolide] + CCCCCCCCCCCCCC[P+](CCCCCC)(CCCCCC)CCCCCC.O=S(=O)([N-]S(=O)(=O)C(F)(F)F)C(F)(F)F", 303),
    ("CCCCCCCCCCCCCC[P+](CCCCCC)(CCCCCC)CCCCCC.N#Cc1ccc[n-]1 [trihexyl(tetradecyl)phosphonium 2-cyanopyrrolide] + CCCCCC[n+]1ccn(C)c1.O=S(=O)([N-]S(=O)(=O)C(F)(F)F)C(F)(F)F", 101),
    ("CCCCCCCCCCCCCC[P+](CCCCCC)(CCCCCC)CCCCCC.N#Cc1ccc[n-]1 [trihexyl(tetradecyl)phosphonium 2-cyanopyrrolide] + CCCCCCn1cc[n+](C)c1C.O=S(=O)([N-]S(=O)(=O)C(F)(F)F)C(F)(F)F", 173),
]

Requested read-out: viscosity. Entry: CCCCCCn1cc[n+](C)c1.O=[N+]([O-])c1cn[n-]c1 [1-hexyl-3-methylimidazolium 4-nitropyrazolide] + CCCCCCCC[P+](CC)(CC)CC.O=S(=O)([N-]S(=O)(=O)C(F)(F)F)C(F)(F)F
116

* * *

Assay: xn = mol fraction of the nth substance listed
Settings: 333.15 K; 100 kPa; Liquid; Vibrating tube method; x1 = 0.25
Recorded measurements of mass density, one per entry
Response body: numeric value in kg/m3, unit text excluded.

Before answering, review these 2 worked examples.
# compound, mass density / kg/m3
measured = [
    ("CCCCCCCC[P+](CC)(CC)CC.O=[N+]([O-])c1cn[n-]c1 [triethyloctylphosphonium 4-nitropyrazolide] + CCCCCCn1cc[n+](C)c1C.O=S(=O)([N-]S(=O)(=O)C(F)(F)F)C(F)(F)F", 1249.8),
    ("CCCCCCn1cc[n+](C)c1C.O=[N+]([O-])c1cn[n-]c1 [1-hexyl-2,3-dimethylimidazolium 4-nitropyrazolide] + CCCCCCCCCCCCCC[P+](CCCCCC)(CCCCCC)CCCCCC.O=S(=O)([N-]S(=O)(=O)C(F)(F)F)C(F)(F)F", 1046.5),
]

Requested read-out: mass density. Entry: CCCCCCCC[P+](CC)(CC)CC.O=[N+]([O-])c1cn[n-]c1 [triethyloctylphosphonium 4-nitropyrazolide] + CCCCCC[n+]1ccn(C)c1.O=S(=O)([N-]S(=O)(=O)C(F)(F)F)C(F)(F)F
1255.5

Requested read-out: mass density. Entry: CCCCCCn1cc[n+](C)c1.O=[N+]([O-])c1cn[n-]c1 [1-hexyl-3-methylimidazolium 4-nitropyrazolide] + CCCCCCCCCCCCCC[P+](CCCCCC)(CCCCCC)CCCCCC.O=S(=O)([N-]S(=O)(=O)C(F)(F)F)C(F)(F)F
1046.4

* * *

Recorded measurements of viscosity, one per entry
Assay: xn = mol fraction of the nth substance listed
Details: 278.15 K; 100 kPa; Liquid; Cone and plate viscometry; x1 = 0.3
Response body: numeric value in mPa·s, unit text excluded.

# compound, unit-descriptor, viscosity
measured = [
    ("CC(=O)[O-].CCCCCCCCCCCCCC[P+](CCCCCC)(CCCCCC)CCCCCC [trihexyl(tetradecyl)phosphonium acetate] + CCCCCC[n+]1ccn(C)c1.O=S(=O)([N-]S(=O)(=O)C(F)(F)F)C(F)(F)F", "mPa·s", 946),
]

Now look at this entry.
Requested read-out: viscosity. Entry: CCCCCCCCCCCCCC[P+](CCCCCC)(CCCCCC)CCCCCC.O=[N+]([O-])c1cn[n-]c1 [trihexyl(tetradecyl)phosphonium 4-nitropyrazolide] + CCCCCC[n+]1ccn(C)c1.O=S(=O)([N-]S(=O)(=O)C(F)(F)F)C(F)(F)F
831
